Target: T1, recombinant soluble human TREM2 protein (human TREM2 ECD-FlagHis) (human, UniProt Q9NZC2 19-174)
T1 sequence: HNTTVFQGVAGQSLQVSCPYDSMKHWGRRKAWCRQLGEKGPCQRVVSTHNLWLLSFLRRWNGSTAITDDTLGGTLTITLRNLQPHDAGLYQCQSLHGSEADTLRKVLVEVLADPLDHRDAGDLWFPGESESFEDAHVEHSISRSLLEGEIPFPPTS
Assay: Octet BLI binning; competitor: load Ab 13E7
Label scheme for sandwich binding signal: lower than 0.3 is Not fulfilled, 0.3 and above is Fulfilled.

24F4 (antibody, human IgG2, V domains shown, human IgG2 from hybridoma) VH: EVQLVQSGAEVKKPGESLKISCKGSGYTFTSYWIGWVRQMPGKGLEWMGIIYPGDSDTRYSPSFQGQVTISVDKSSSTAYLQWSSLKASDTAIYYCTRQAIAVTGLGGFDPWGQGTLVTVSS VL: EIVLTQSPGTLSLSPGERATLSCRASQSVSSSYLAWYQQKPGQAPRLLIYGASSRATGIPDRFSGSGSGTDFTLTISRLEPEDFALYYCQQYDTSPFTFGPGTKVDIK    Not fulfilled
16B8 (antibody, human IgG4, V domains shown, human IgG4 (G4) from hybridoma) VH: QVQLVQSGAEVKKPGASVKVSCKASGYTFTNYGISWVRQAPGQGLEWMGWISAYNGNTNYAQKLQGRVTMTTDTSTSTVYMELRSLRSDDTAVYYCARRGYSYGSFDYWGQGTLVTVSS VL: DIQMTQSPSSVSASVGDRVTVTCRASQDINSWLAWYQQKPGKAPKLLIYAASSLQTGVPSRFSGSGSGTDFTLTISSLQPEDFATYSCQQSNSFPITFGQGTRLEIK    Fulfilled
13E7 (antibody, human IgG2, V domains shown, human IgG2 from hybridoma) VH: EVQLVQSGAEVKKPGESLMISCKGSGYSFTSYWIGWVRQMPGKGLEWMGIIYPGDSDTRYSPSFQGQVTISADKSISTAYLQWSSLKASDTAMYFCARRRQGIWGDALDFWGQGTLVTVSS VL: EIVMTQSPATLSVSPGERATLSCRASQSVSSNLAWFQQKPGQAPRLLIYGASTRATGIPARFSVSGSGTEFTLTISSLQSEDFAVYYCLQDNNWPPTFGPGTKVDIK    Not fulfilled
5E3 (antibody, human IgG2, V domains shown, human IgG2 from hybridoma) VH: QVQLVQSGAEVKKPGASVKVSCKASGYTFTGYYIHWVRQAPGLGLEWMGWINPYSGGTTSAQKFQGRVTMTRDTSISSAYMELSRLRSDDTAVYYCARDGGYLALYGTDVWGQGTTVTVSS VL: DIQMTQSPSSLSASVGDRVTITCRASQGISNYLAWFQQKPGKAPKSLIYAASSLQSGVPSKFSGSGSGTDFTLTISSLQPEDFATYYCQQYSTYPFTFGPGTKVDIK    Not fulfilled

Here is another binder to look at.
[in] Dear colleague, could you confirm whether 32E3 (antibody, human IgG2, V domains shown, human IgG2 from hybridoma) VH: EVQLVQSGAEVKKPGESLKISCKGSGYSFTSYWIGWVRQMPGKGLEWMGIIYPGDSDTRYSPSFQGQVTISADKSISTAYLQWSTLKASDTAIYYCARHDIIPAAPGAFDIWGQGTMVTVSS VL: EFVLTQSPGTLSLSPGERATLSCRASQIISSNYLAWYQQKPGQAPRLLIYSASSRATGIPDRFSGSGSGTDFTLTISRLEPEDFAVYYCQQFDSSPITFGRGTRLDIK has sandwich binding signal at or above 0.3?
[out] Not fulfilled
